Could you please report measured Population Fragmented Nuclei (%) for the items listed next?
- System: HEK-293T
- method notes: Multiplex assay against HEK293T
- Type: toxicity, cell-based
- test parameters: human, 12 h, 10 µM, compound concentration 10 uM, replicate 1
The reply should contain only the number, in %.

HEK-293T / Population Fragmented Nuclei (%) / CN(C)CCCc1cc(C(=O)Nc2ccc(-c3ccncc3)cc2)ccc1O.Cl.Cl : value?
10

HEK-293T / Population Fragmented Nuclei (%) / Cl.Clc1ccc2nsnc2c1NC1=NCCN1 [TIZANIDINE HYDROCHLORIDE] : value?
9

HEK-293T / Population Fragmented Nuclei (%) / CCCC(CCC)C(=O)O [VALPROIC ACID] : value?
6

HEK-293T / Population Fragmented Nuclei (%) / O=C(O)c1cc2ccccc2c(Cc2c(O)c(C(=O)O)cc3ccccc23)c1O [PAMOIC ACID] : value?
8

HEK-293T / Population Fragmented Nuclei (%) / C[C@@H]1C[C@H]2[C@@H]3CCC4=CC(=O)C=C[C@]4(C)[C@@]3(F)[C@@H](O)C[C@]2(C)[C@@]1(O)C(=O)CO [DEXAMETHASONE] : value?
7

HEK-293T / Population Fragmented Nuclei (%) / CSc1ccccc1N1CCN(CCCCCC(=O)NC2CCCc3ccccc32)CC1.Cl (stereo not given) : value?
8

HEK-293T / Population Fragmented Nuclei (%) / CN(C)c1ccnc2sc3c(=O)n(N4CCCCCC4)cnc3c12 : value?
4

HEK-293T / Population Fragmented Nuclei (%) / CC[C@H]1OC(=O)[C@H](C)[C@@H](O[C@H]2C[C@@](C)(OC)[C@@H](O)[C@H](C)O2)[C@H](C)[C@@H](O[C@@H]2O[C@H](C)C[C@H](N(C)C)[C@H]2O)[C@@]2(C)CC(C)=C(O2)[C@H](C)[C@@H](O)[C@]1(C)O : value?
8

HEK-293T / Population Fragmented Nuclei (%) / Cc1nc2ccc(Oc3ccc(F)cc3)cc2c(=O)n1C[C@H]1CCCN(C(C)C)C1.Cl : value?
7

HEK-293T / Population Fragmented Nuclei (%) / O=C1COc2nccc(-c3ccccc3F)c2CN1Cc1cc(C(F)(F)F)cc(C(F)(F)F)c1 : value?
10

HEK-293T / Population Fragmented Nuclei (%) / Cc1ccccc1C(=O)Nc1ccc(C(=O)N2CCCC(N(C)C)c3ccccc32)cc1.Cl (stereo not given) : value?
6

HEK-293T / Population Fragmented Nuclei (%) / N#Cc1c(N)nc(SCc2csc(-c3ccc(Cl)cc3)n2)c(C#N)c1-c1ccc(OCCO)cc1 [CAPADENOSON] : value?
7

HEK-293T / Population Fragmented Nuclei (%) / CCCN1CCC[C@@H]2Cc3n[nH]cc3C[C@H]21.Cl [QUINPIROLE HYDROCHLORIDE] : value?
11

HEK-293T / Population Fragmented Nuclei (%) / Cc1ccc(/C(=C\CN2CCCC2)c2ccccn2)cc1 [TRIPROLIDINE] : value?
10

HEK-293T / Population Fragmented Nuclei (%) / O=C(NCC(=O)N1CC[C@H](N[C@H]2CC[C@@](O)(c3ccc(-c4ncccn4)cn3)CC2)C1)c1cccc(C(F)(F)F)c1 [PF-4136309] : value?
7

HEK-293T / Population Fragmented Nuclei (%) / Oc1c(CN2CCN(c3ccccn3)CC2)cc(Cl)c2cccnc12 : value?
16

HEK-293T / Population Fragmented Nuclei (%) / CCNC1(C(N)=O)CCN(c2ncnc3c2nc(-c2ccccc2Cl)n3-c2ccc(Cl)cc2)CC1 [OTENABANT] : value?
3

HEK-293T / Population Fragmented Nuclei (%) / COc1cc(C(=O)N(CCCc2ccccc2)Cc2ccc(CC(=O)O)cc2)cc(OC)c1C : value?
6

HEK-293T / Population Fragmented Nuclei (%) / CNC[C@H](O)c1ccc(O)c(O)c1 [EPINEPHRINE] : value?
12

HEK-293T / Population Fragmented Nuclei (%) / CCCn1c(=O)c2[nH]c(C3CCCC3)nc2n(CCC)c1=O : value?
12

HEK-293T / Population Fragmented Nuclei (%) / Cc1ccc(-c2ccc(F)cc2COc2ccc(CCC(=O)O)cc2)cc1 : value?
10

HEK-293T / Population Fragmented Nuclei (%) / COc1cc(NC(=O)CCN2CCC(OC(=O)Nc3ccccc3-c3ccccc3)CC2)c(Cl)cc1CNC[C@H](O)c1ccc(O)c2[nH]c(=O)ccc12 [BATEFENTEROL] : value?
90

HEK-293T / Population Fragmented Nuclei (%) / CN1CCN2c3ncccc3Cc3ccccc3C2C1 (stereo not given) [MIRTAZAPINE] : value?
9

HEK-293T / Population Fragmented Nuclei (%) / CC1(COc2ccc3c(c2)ncn3-c2ccc3cccc(N4CCC(N)CC4)c3n2)COC1 [CRENOLANIB] : value?
67

HEK-293T / Population Fragmented Nuclei (%) / CC(C)(C)c1ccc(S(=O)(=O)Nc2ccc(Cl)cc2C(=O)c2cc[n+]([O-])cc2)cc1 [VERCIRNON] : value?
6

HEK-293T / Population Fragmented Nuclei (%) / CCOc1c2c(c(OCC)c3ncccc13)CN(c1ccc(CS(=O)(=O)NC(=O)Cc3ccccc3OC)cc1C)C2=O : value?
9

HEK-293T / Population Fragmented Nuclei (%) / Cc1ccc(F)cc1C(=O)Nc1ccc(C(=O)N2Cc3cccn3Cc3ccccc32)c(Cl)c1 [LIXIVAPTAN] : value?
6

HEK-293T / Population Fragmented Nuclei (%) / C[C@H]1[C@H]2CC[C@H]3[C@@H]4CC=C5C[C@@H](N(C)C)CC[C@]5(C)[C@H]4CC[C@]23CN1C [CONESSINE] : value?
6

HEK-293T / Population Fragmented Nuclei (%) / CC(=O)NCCc1c(Cc2ccccc2)[nH]c2ccccc12 [LUZINDOLE] : value?
8

HEK-293T / Population Fragmented Nuclei (%) / Cc1ccc(C(C)(O)c2nc3ccccc3s2)c(C)c1 (stereo not given) : value?
5

HEK-293T / Population Fragmented Nuclei (%) / CN1CCN(c2nc3cc(C(F)(F)F)ccc3n3cccc23)CC1.O=C(O)/C=C\C(=O)O.O=C(O)/C=C\C(=O)O : value?
7

HEK-293T / Population Fragmented Nuclei (%) / O=S(=O)(c1ccccc1)c1cnc2c(N3CCNCC3)cccc2c1 [INTEPIRDINE] : value?
8

HEK-293T / Population Fragmented Nuclei (%) / O=C(NCCO)c1cccc(-c2cc(Nc3ccc(OC(F)(F)F)cc3)ncn2)c1 : value?
6

HEK-293T / Population Fragmented Nuclei (%) / c1cc(OCCCN2CCCCC2)ccc1CN1CCCCC1 [JNJ-5207852] : value?
7

HEK-293T / Population Fragmented Nuclei (%) / COc1ccc2c(c1)C(C(=O)N(Cc1ccc(N(C)C)cc1)c1ccc(C(C)C)cc1)CCC2.Cl (stereo not given) : value?
9
